I'd appreciate it if you could supply relative viability values for the items below.
Test system: SW684
assayMethodText: relative viability vs DMSO control (72 h) (fraction); higher = more viable cells
reportedConditions: 0.04115 µM

Q. Consider the compound O=S(=O)(c1cccc2cnccc12)N1CCCNCC1 [Fasudil] and give its measured relative viability.
A. 0.965

# batch: return relative viability for each of the 2 compounds below
1. COC(=O)[C@@]1(O)C[C@H]2O[C@]1(C)n1c3ccccc3c3c4c(c5c6ccccc6n2c5c31)C(=O)NC4 [K-252a]
2. Cn1cc(C2=C(c3cn(C4CCN(Cc5ccccn5)CC4)c4ccccc34)C(=O)NC2=O)c2ccccc21 [Enzastaurin]

A.
1. 1.14
2. 1.17

* * *

System: HT1080
assayMethodText: relative viability vs DMSO control (72 h) (fraction); higher = more viable cells
reportedConditions: 0.04115 µM
I'd appreciate it if you could supply relative viability values for the items below.
Answers are plain numbers.

Please review the following examples before continuing.
Q. Consider the compound COC(=O)[C@@]1(O)C[C@H]2O[C@]1(C)n1c3ccccc3c3c4c(c5c6ccccc6n2c5c31)C(=O)NC4 [K-252a] and give its measured relative viability.
A. 1.13

Q. And what about the compound CO[C@H]1C[C@@H]2CC[C@@H](C)[C@@](O)(O2)C(=O)C(=O)N2CCCC[C@H]2C(=O)O[C@H]([C@H](C)C[C@@H]2CC[C@@H](OCCO)[C@H](OC)C2)CC(=O)[C@H](C)/C=C(\C)[C@@H](O)[C@@H](OC)C(=O)[C@H](C)C[C@H](C)/C=C/C=C/C=C/1C ?
A. 0.985

Q. And what about the compound CCc1cnn2c(NCc3ccc[n+]([O-])c3)cc(N3CCCC[C@H]3CCO)nc12 ?
A. 0.193

Q. And what about the compound Cn1ncnc1[C@H]1c2n[nH]c(=O)c3cc(F)cc(c23)N[C@@H]1c1ccc(F)cc1 ?
A. 0.955

Q. And what about the compound CC(C)NC[C@@H](C(=O)N1CCN(c2ncnc3c2[C@H](C)C[C@H]3O)CC1)c1ccc(Cl)cc1 ?
A. 1.04

# batch: return relative viability for each of the 4 compounds below
1. Cc1cccc(-c2nn3c(c2-c2ccnc4ccc(C(N)=O)cc24)CCC3)n1
2. CC1(C)CC=C(c2nc(C3CC(C)(C)OC(C)(C)C3)ccc2NC(=O)c2nc(C#N)c[nH]2)CC1
3. CC(C)(C)c1nc(-c2cccc(NS(=O)(=O)c3c(F)cccc3F)c2F)c(-c2ccnc(N)n2)s1
4. CC(C)Oc1ccc(-c2nn([C@@H](C)c3oc4ccc(F)cc4c(=O)c3-c3cccc(F)c3)c3ncnc(N)c23)cc1F

A.
1: 1.01; 2: 1.03; 3: 1.11; 4: 1.07

* * *

Test system: VA-ES-BJ
assayMethodText: relative viability vs DMSO control (72 h) (fraction); higher = more viable cells
reportedConditions: 0.00051 µM
I'd appreciate it if you could supply relative viability values for the items below.
Give bare numbers.

Q. Consider the compound C[C@H](Nc1ncnc2nc[nH]c12)c1cc2cccc(Cl)c2c(=O)n1-c1ccccc1 and give its measured relative viability.
A. 1.1

Q. And what about the compound C[C@]12O[C@H](C[C@]1(O)CO)n1c3ccccc3c3c4c(c5c6ccccc6n2c5c31)CNC4=O ?
A. 1.06

Q. And what about the compound N#CCNC(=O)c1ccc(-c2ccnc(Nc3ccc(N4CCOCC4)cc3)n2)cc1 ?
A. 1.07

Q. And what about the compound Cc1cc2cc(Oc3ccnc(Nc4cccc(CS(=O)(=O)NCCN(C)C)c4)n3)ccc2[nH]1 ?
A. 1.03

Q. And what about the compound CCN1C(=O)N(c2c(F)c(OC)cc(OC)c2F)Cc2cnc3[nH]c(CN4CCOCC4)cc3c21 ?
A. 1.03

Q. And what about the compound Clc1ccc(Nc2nnc(Cc3ccncc3)c3ccccc23)cc1 ?
A. 1.01

Q. And what about the compound CNC(=O)c1nnc(NC(=O)C2CC2)cc1Nc1cccc(-c2ncn(C)n2)c1OC ?
A. 0.996

Q. And what about the compound COc1cc(Nc2ncc(F)c(Nc3ccc4c(n3)N(COP(=O)(O)O)C(=O)C(C)(C)O4)n2)cc(OC)c1OC ?
A. 1.06

Shift focus to the following entry.
Q. Consider the compound O=c1sn(-c2cccc3ccccc23)c(=O)n1Cc1ccccc1 and give its measured relative viability.
A. 1.12

* * *

Tested on: SW684
assayMethodText: relative viability vs DMSO control (72 h) (fraction); higher = more viable cells
reportedConditions: 0.00457 µM
readoutKind: relative viability
Give bare numbers.

Please review the following examples before continuing.
Q. Consider the compound Cc1ccc(Nc2nccc(N(C)c3ccc4c(C)n(C)nc4c3)n2)cc1S(N)(=O)=O and give its measured relative viability.
A. 1.15

Q. And what about the compound CC1(COc2ccc3c(c2)ncn3-c2ccc3cccc(N4CCC(N)CC4)c3n2)COC1 ?
A. 1.04

Q. And what about the compound CC(C)NC[C@@H](C(=O)N1CCN(c2ncnc3c2[C@H](C)C[C@H]3O)CC1)c1ccc(Cl)cc1 ?
A. 1.09

# batch: return relative viability for each of the 4 compounds below
1. CC#CC(=O)N1CCC[C@H]1c1nc(-c2ccc(C(=O)Nc3ccccn3)cc2)c2c(N)nccn12
2. O=C(Nc1nc2cccc(-c3ccc(CN4CCS(=O)(=O)CC4)cc3)n2n1)C1CC1
3. Cc1cc2cc(Oc3ccnc(Nc4cccc(CS(=O)(=O)NCCN(C)C)c4)n3)ccc2[nH]1
4. O=S(=O)(c1cccc2cnccc12)N1CCCNCC1

A.
1.13
1.19
1.12
0.965

* * *

Tested on: KHOS-240S
assayMethodText: relative viability vs DMSO control (72 h) (fraction); higher = more viable cells
reportedConditions: 0.3704 µM
readoutKind: relative viability
Give bare numbers.

Please review the following examples before continuing.
Q. Consider the compound O=C1NC(=O)[C@@H](c2cn3c4c(cccc24)CCC3)[C@@H]1c1c[nH]c2ccccc12 [Tivantinib] and give its measured relative viability.
A. 0.791

Q. And what about the compound Clc1ccc(Nc2nnc(Cc3ccncc3)c3ccccc23)cc1 ?
A. 1.03

Q. And what about the compound COc1cc(Nc2ncc(F)c(Nc3ccc4c(n3)N(COP(=O)(O)O)C(=O)C(C)(C)O4)n2)cc(OC)c1OC ?
A. 0.892

Shift focus to the following entry.
Q. Consider the compound CNC(=O)c1ccccc1Sc1ccc2c(/C=C/c3ccccn3)n[nH]c2c1 and give its measured relative viability.
A. 0.802

* * *

System: SYO-1
assayMethodText: standardised AUC of viability dose-response curve (72 h) (fraction (0-1)); higher = less growth inhibition (more resistant)
readoutKind: standardised AUC
Numbers only.

Q. Consider the compound Cn1cc(C2=C(c3cn(C4CCN(Cc5ccccn5)CC4)c4ccccc34)C(=O)NC2=O)c2ccccc21 [ENZASTAURIN] and give its measured standardised AUC.
A. 0.965

# batch: return standardised AUC for each of the 4 compounds below
1. CC1(COc2ccc3c(c2)ncn3-c2ccc3cccc(N4CCC(N)CC4)c3n2)COC1 [CRENOLANIB]
2. COc1cc(Nc2ncc(F)c(Nc3ccc4c(n3)N(COP(=O)(O)O)C(=O)C(C)(C)O4)n2)cc(OC)c1OC [FOSTAMATINIB]
3. CCN1C(=O)N(c2c(F)c(OC)cc(OC)c2F)Cc2cnc3[nH]c(CN4CCOCC4)cc3c21 [PEMIGATINIB]
4. CCN(CC)CCNC(=O)c1c(C)[nH]c(/C=C2\C(=O)Nc3ccc(F)cc32)c1C [SUNITINIB]

A.
1: 0.804; 2: 0.779; 3: 0.804; 4: 0.648

# batch: return standardised AUC for each of the 3 compounds below
1. C[C@H](Nc1ncnc2nc[nH]c12)c1cc2cccc(Cl)c2c(=O)n1-c1ccccc1 [DUVELISIB]
2. CC#CC(=O)N1CCC[C@H]1c1nc(-c2ccc(C(=O)Nc3ccccn3)cc2)c2c(N)nccn12 [ACALABRUTINIB]
3. CCc1cnn2c(NCc3ccc[n+]([O-])c3)cc(N3CCCC[C@H]3CCO)nc12 [DINACICLIB]

A.
0.921
0.989
0.519

* * *

Test system: SYO-1
assayMethodText: relative viability vs DMSO control (72 h) (fraction); higher = more viable cells
reportedConditions: 0.00152 µM
I'd appreciate it if you could supply relative viability values for the items below.
Numbers only.

Please review the following examples before continuing.
Q. Consider the compound Cc1ccc(Nc2nccc(N(C)c3ccc4c(C)n(C)nc4c3)n2)cc1S(N)(=O)=O and give its measured relative viability.
A. 0.882

Q. And what about the compound O=C1NC(=O)[C@@H](c2cn3c4c(cccc24)CCC3)[C@@H]1c1c[nH]c2ccccc12 [Tivantinib] ?
A. 0.95

Shift focus to the following entry.
Q. Consider the compound CC1(C)CC=C(c2nc(C3CC(C)(C)OC(C)(C)C3)ccc2NC(=O)c2nc(C#N)c[nH]2)CC1 and give its measured relative viability.
A. 0.919
